TESTED ON: NLRP3 (Homo sapiens)
ASSAY COMMENT: THP-1 cells pyroptosis assay
Type: cell-based
Design: Seed THP-1 cells (25,000 cells/well) containing 1.0 μg/ml LPS; host or cells: THP-1
RUN PARAMETERS: LPS 1.0 μg/ml, nigericin 5 μM, resazurin readout, 10 μM top dose (Example 2: top dose of 30 μM)
ASSAY ENDPOINT: IC50

Worked set:
In [3]: df
Out[3]:
                                   compound    result
0  CN1CC2CN(S(=O)(=O)c3nnc(Nc4c5c(cc6c4CCC6)CCC5)[nH]3)CC2C1 (stereo not shown)    ≤ 5 µM
1  CN(C1CNC1)S(=O)(=O)c1nnc(Nc2c3c(cc4c2CCC4)CCC3)[nH]1    ≤ 5 µM
2  CCN1CCCC12CCN(S(=O)(=O)c1nnc(Nc3c4c(cc5c3CCC5)CCC4)[nH]1)CC2  ≤ 0.5 µM

Consider the compound O=S(=O)(c1nnc(Nc2c3c(cc4c2CCC4)CCC3)[nH]1)N1CC2(CNC2)C1 and give its measured IC50.
≤ 5 µM

----------
ASSAY COMMENT: PK, intravenous administration
Format: in vivo
RUN PARAMETERS: rat, plasma, male Sprague Dawley rats, dose about 1 mg/kg
ASSAY ENDPOINT: AUC (ng·h/mL)

Field: example entries. Status: answers known.
>>> print(df.to_string())
                                   compound  assay_endpoint  output_unit  result_number
0  O=S(=O)(c1nnc(Nc2c3c(cc4c2CCC4)CCC3)[nH]1)N1CC2(CCN(C3CC3)C2)C1 [Example 245]             AUC      ng·h/mL            393
1  CNC1CCN(S(=O)(=O)c2nnc(Nc3c4c(cc5c3CCC5)CCC4)[nH]2)CC1 [Example 130]             AUC      ng·h/mL            509
2  CN1CCC2(C1)CN(S(=O)(=O)c1nnc(Nc3c4c(cc5c3CCC5)CCC4)[nH]1)C2 [Example 274]             AUC      ng·h/mL            271

A. CS(=O)(=O)c1nnc(Nc2c(-c3ccnc(OC4CCCOC4)c3)ccc3c2CCC3)[nH]1 (centres unmarked) [Example 236]
B. COc1cc(-c2cc(F)cc(C(C)C)c2Cc2nnc(S(=O)(=O)N3CCC(CN(C)C)C3)[nH]2)ccn1 (centres unmarked) [Example 156]
Looking at A and B , which one comes out lower in AUC terms? Provide the label of your selected option as the answer.
B
(B: 193 ng·h/mL, A: 3160 ng·h/mL)

----------
TESTED ON: NLRP3 (Homo sapiens)
ASSAY COMMENT: Human whole blood IL1β release assay
Type: cell-based
RUN PARAMETERS: LPS 1 μg/ml, nigericin 10 μM, IL-1β AlphaLisa, 10 μM top dose (Example 2: top dose of 30 μM), read-out: HWB IC50
Protocol: For systemic delivery, the ability to inhibit NLRP3 when the compounds are present within the bloodstream is of great importance. […] Human whole blood in sodium-heparin or lithium-heparin tubes was obtained from healthy donors from a volunteer donor panel. • 1. […] IL-1β was measured according to the manufacturer protocol (Perkin Elmer-AlphaLisa IL-1 Kit AL220F-5000) • 8. […]
Form field: IC50 (one value per entry).

Known IC50 results, listed for orientation:
                                   compound  assay_endpoint    result
0  CN(C)C[C@@H]1CCN(S(=O)(=O)c2nnc(Nc3c4c(cc5c3CCC5)CCC4)[nH]2)C1            IC50  ≤ 0.5 µM
1  COc1cc(-c2ccc3c(c2Nc2nnc(S(=O)(=O)N4CC[C@H](C(C)(C)O)C4)[nH]2)CCC3)ccn1            IC50    ≤ 1 µM
2  CC(C)N1CC(S(=O)(=O)c2nnc(Nc3c4c(cc5c3CCC5)CCC4)[nH]2)C1            IC50   ≤ 10 µM
3  O=S(=O)(NCCN1CCCC1)c1nnc(Nc2c3c(cc4c2CCC4)CCC3)[nH]1            IC50    ≤ 5 µM
4  CN(C)C[C@H]1CCN(S(=O)(=O)c2nnc(Nc3c4c(cc5c3CCC5)CCC4)[nH]2)C1            IC50  ≤ 0.5 µM

For the compound shown here, CN(C)CCNS(=O)(=O)c1nnc(Nc2c3c(cc4c2CCC4)CCC3)[nH]1 , give the reported IC50.
≤ 1 µM

----------
Entries and their measured IC50 follow.
TESTED ON: NLRP3 (Homo sapiens, UniProt Q96P20)
Sequence (Q96P20 whole entry): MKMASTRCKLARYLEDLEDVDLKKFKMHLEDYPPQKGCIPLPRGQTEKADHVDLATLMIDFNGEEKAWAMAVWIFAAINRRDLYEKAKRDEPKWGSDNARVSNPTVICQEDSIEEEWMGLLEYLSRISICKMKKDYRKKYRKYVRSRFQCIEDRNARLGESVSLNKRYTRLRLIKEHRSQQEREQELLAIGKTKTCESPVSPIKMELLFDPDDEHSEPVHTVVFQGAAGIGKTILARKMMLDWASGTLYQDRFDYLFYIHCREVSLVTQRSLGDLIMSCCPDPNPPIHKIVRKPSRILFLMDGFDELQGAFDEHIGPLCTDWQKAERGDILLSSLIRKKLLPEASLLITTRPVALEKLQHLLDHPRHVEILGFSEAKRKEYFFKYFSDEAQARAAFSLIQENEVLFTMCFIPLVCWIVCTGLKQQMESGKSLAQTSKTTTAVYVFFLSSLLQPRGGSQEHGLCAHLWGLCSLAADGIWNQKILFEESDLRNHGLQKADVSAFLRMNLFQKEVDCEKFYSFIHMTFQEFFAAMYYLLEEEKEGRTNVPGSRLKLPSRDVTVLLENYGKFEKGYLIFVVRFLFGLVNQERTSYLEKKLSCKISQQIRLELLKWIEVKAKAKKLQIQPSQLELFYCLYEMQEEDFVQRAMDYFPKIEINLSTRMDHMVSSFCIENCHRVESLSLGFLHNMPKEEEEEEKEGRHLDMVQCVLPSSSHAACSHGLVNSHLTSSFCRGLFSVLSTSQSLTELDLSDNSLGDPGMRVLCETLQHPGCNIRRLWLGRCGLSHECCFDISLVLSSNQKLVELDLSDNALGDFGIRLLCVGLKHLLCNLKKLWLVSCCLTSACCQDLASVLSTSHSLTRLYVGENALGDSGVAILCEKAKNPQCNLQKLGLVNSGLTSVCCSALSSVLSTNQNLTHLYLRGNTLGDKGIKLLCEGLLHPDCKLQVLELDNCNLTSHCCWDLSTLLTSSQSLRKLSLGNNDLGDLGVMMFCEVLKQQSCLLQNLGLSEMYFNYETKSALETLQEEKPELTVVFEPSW
ASSAY COMMENT: THP-1 cells pyroptosis assay
Format: cell-based
Design: Seed THP-1 cells (25,000 cells/well) containing 1.0 μg/ml LPS; host or cells: THP-1
RUN PARAMETERS: LPS 1.0 μg/ml, nigericin 5 μM, resazurin readout, 10 μM top dose (Example 2: top dose of 30 μM)

Sample records with IC50:
                                test_smiles    result
0  CN1CCC2(C1)CN(S(=O)(=O)c1nnc(Nc3c(-c4ccnc(OC(F)F)c4)ccc4c3CCC4)[nH]1)C2  ≤ 0.5 µM
1  COCCCS(=O)(=O)c1nnc(Nc2c3c(cc4c2CCC4)CCC3)[nH]1   ≤ 10 µM
2  O=S(=O)(CCCNC1CC1)c1nnc(Nc2c3c(cc4c2CCC4)CCC3)[nH]1    ≤ 5 µM

Lab note: next compound to report on.
Could you share which IC50 value was measured for COC1(c2cc(S(=O)(=O)c3nnc(Nc4c5c(cc6c4CCC6)CCC5)[nH]3)nn2C(C)C)COC1 ?
≤ 5 µM

----------
Let's look at some molecules and their measured pIC50.
TESTED ON: NLRP3 (Homo sapiens, UniProt Q96P20)
ASSAY COMMENT: THP-1 cells pyroptosis assay
Format: cell-based
Set-up: Seed THP-1 cells (25,000 cells/well) containing 1.0 μg/ml LPS; host or cells: THP-1
RUN PARAMETERS: LPS 1.0 μg/ml, nigericin 5 μM, resazurin readout, 10 μM top dose (Example 2: top dose of 30 μM)
pIC50: −log10 of the molar value.

>>> print(df.to_string())
                                test_smiles  result
0  O=S(=O)(c1nnc(Nc2c3c(cc4c2CCC4)CCC3)[nH]1)C1CNC1  ≥ 5.00

# query: pIC50 of entry CN(C)S(=O)(=O)c1nnc(Nc2c3c(cc4c2CCC4)CCC3)[nH]1
≥ 5.30

----------
Below: a set of entries, each annotated with reported pIC50.
TESTED ON: NLRP3 (Homo sapiens, UniProt Q96P20)
ASSAY COMMENT: THP-1 cells pyroptosis assay
Format: cell-based
Parameters: Seed THP-1 cells (25,000 cells/well) containing 1.0 μg/ml LPS; host or cells: THP-1
RUN PARAMETERS: LPS 1.0 μg/ml, nigericin 5 μM, resazurin readout, 10 μM top dose (Example 2: top dose of 30 μM)
pIC50: −log10 of the molar value.

Here's what some known entries look like.
>>> print(df.to_string())
                                   molecule  assay_endpoint  result
0  CN(C)CC1CCN(S(=O)(=O)c2nnc(Nc3c4c(cc5c3CCC5)CCC4)[nH]2)CC1           pIC50  ≥ 6.30
1  CC(c1cc(S(=O)(=O)c2nnc(Nc3c4c(cc5c3CCC5)CCC4)[nH]2)nn1C(C)C)N(C)C (stereo not shown)           pIC50  ≥ 6.00
2  COc1cc(-c2ccc3c(c2Nc2nnc(S(=O)(=O)N4CCC(N(C)C)CC4)[nH]2)CCC3)ccn1           pIC50  ≥ 6.30

Now consider the entry below.
# get_value(readout= pIC50, system= NLRP3 (Homo sapiens, UniProt Q96P20)) for CN(C)C1CCC(Oc2cc(-c3ccc4c(c3Nc3nnc(S(C)(=O)=O)[nH]3)CCC4)ccn2)CC1 (stereo not shown)
≥ 5.30

----------
ASSAY COMMENT: PK, intravenous administration
Format: in vivo
RUN PARAMETERS: rat, plasma, male Sprague Dawley rats, dose about 1 mg/kg
ASSAY ENDPOINT: clearance (mL/min/kg)

                                   compound  assay_endpoint  output_unit  result_number
0  CC(C)c1cc(F)cc(C(C)C)c1Nc1nnc(S(=O)(=O)N2CCC3(CCCN3C)CC2)[nH]1 [Example 247]       clearance    mL/min/kg           72.5
1  O=S(=O)(CCCN1CCCC1)c1nnc(Nc2c3c(cc4c2CCC4)CCC3)[nH]1 [Example 49]       clearance    mL/min/kg           98.9
2  CN1CCC2(C1)CN(S(=O)(=O)c1nnc(Nc3c(-c4ccnc(OC(F)F)c4)ccc4c3CCC4)[nH]1)C2 [Example 213]       clearance    mL/min/kg           90.6
3  CC(C)c1cc(F)cc(-c2ccncc2)c1Cc1nnc(S(=O)(=O)N2CCC(CN(C)C)C2)[nH]1 (stereo not shown) [Example 153]       clearance    mL/min/kg           84.1

Entry source: patent US20210261512A1
